- Tested on: HOP-62 NSCLC
- TEST: NCI tumour cell line growth inhibition, 48 h
Entries and their measured TGI follow.
MEASURED_QUANTITY: TGI

>  <COMPOUND>
CC(C)=CCC/C(C)=C/Cc1c(O)ccc2c1[nH]c1cc(O)c(C)cc12

>  <STUDY_TARGET>
HOP-62 NSCLC

>  <OBSERVED_RESULT>
23.4 µM

$$$$
>  <COMPOUND>
CN(C)C(=C1c2cc([N+](=O)[O-])ccc2-c2ccc([N+](=O)[O-])cc21)N(C)C

>  <STUDY_TARGET>
HOP-62 NSCLC

>  <OBSERVED_RESULT>
> 100 µM

$$$$
>  <COMPOUND>
FC(F)(F)c1ccc2nc(Nc3ccc(Cl)c(Cl)c3)c(-c3ccccc3)nc2c1

>  <STUDY_TARGET>
HOP-62 NSCLC

>  <OBSERVED_RESULT>
> 100 µM

$$$$
>  <COMPOUND>
CN(N)/N=N/c1nc[nH]c1C(N)=O

>  <STUDY_TARGET>
HOP-62 NSCLC

>  <OBSERVED_RESULT>
> 100 µM

$$$$
>  <COMPOUND>
COc1ccc(-c2c(C#N)c(S)n(C3OC(CO)C(O)C(O)C3O)c(=O)c2C#N)cc1 (stereo unspecified)

>  <STUDY_TARGET>
HOP-62 NSCLC

>  <OBSERVED_RESULT>
> 100 µM

$$$$
>  <COMPOUND>
Cc1ccc(-n2cnc3c(N/N=C4\SCC(=O)N4c4ccccc4)ncnc32)cc1

>  <STUDY_TARGET>
HOP-62 NSCLC

>  <OBSERVED_RESULT>
28.9 µM

$$$$

----------
- Test system: U251 CNS
- TEST: NCI tumour cell line growth inhibition, 48 h

>  <COMPOUND>
Nc1nnc(-c2ccco2)c(-c2ccco2)n1

>  <TGI>
> 100 µM

$$$$
>  <COMPOUND>
Cc1nnc2sc(-c3ccc(-c4ccccc4Cl)o3)nn12

>  <TGI>
> 100 µM

$$$$
>  <COMPOUND>
C=CC12CN(C)C3C4COC(CC41)C1(C(=O)Nc4ccccc41)C32 (centres undefined)

>  <TGI>
> 200 µM

$$$$
>  <COMPOUND>
O=C(Cc1ccccc1)N/N=C(\C1=Nc2ccc([N+](=O)[O-])cc2NC1O)C(O)c1ccc([N+](=O)[O-])cc1 (centres undefined)

>  <TGI>
> 100 µM

$$$$
>  <COMPOUND>
CC1CC/C(=C\c2ccc(N(C)C)cc2)C(=O)/C1=C/c1ccc(N(C)C)cc1 (centres undefined)

>  <TGI>
> 100 µM

$$$$
>  <COMPOUND>
NC(N)=NC(N)=Nc1c(F)c(F)c(F)c(F)c1F

>  <TGI>
> 100 µM

$$$$
>  <COMPOUND>
N/N=C(\Cc1ccccc1)NN=C(N)N

>  <TGI>
> 100 µM

$$$$
>  <COMPOUND>
Fc1ccc(Nc2nccc(-c3c(-c4ccc(C(F)(F)F)cc4)nn4ncccc34)n2)cc1F

>  <TGI>
> 25 µM

$$$$
>  <COMPOUND>
Cc1cccc(Nc2cn(CCOc3ccccc3)c(=O)n(CCOc3ccccc3)c2=O)c1

>  <TGI>
> 100 µM

$$$$
>  <COMPOUND>
CN(N)/N=N/c1nc[nH]c1C(N)=O

>  <TGI>
> 100 µM

$$$$
>  <COMPOUND>
O=C(CC(C(=O)c1cccs1)c1ccsc1)c1ccsc1 (centres undefined)

>  <TGI>
> 100 µM

$$$$
>  <COMPOUND>
CC(C)N1CSC(=S)N(Cc2ccccc2)C1

>  <TGI>
> 10 µM

$$$$
>  <COMPOUND>
Cc1cc(NS(=O)(=O)c2ccc(Nc3c4ccccc4nc4ccc(C(=O)Nc5ccc(S(=O)(=O)N=C(N)N)cc5)cc34)cc2)no1

>  <TGI>
> 100 µM

$$$$
>  <COMPOUND>
COc1ccc2cc3n(c2c1)CCc1cc(OC)c(OC)cc1-3

>  <TGI>
> 100 µM

$$$$
>  <COMPOUND>
COc1ccc(NCC(=O)Nn2c(C)nc3ccc(S(=O)(=O)Nc4ccc(OC)cc4)cc3c2=O)cc1

>  <TGI>
> 100 µM

$$$$
>  <COMPOUND>
CCOC(=O)C(O)(NC(=O)Nc1ccc(F)cc1)C(F)(F)F (centres undefined)

>  <TGI>
> 100 µM

$$$$
>  <COMPOUND>
CC(=O)O[C@]12CCC[C@H]1C1(O)C(O)CCC[C@H]12 (some centres undefined)

>  <TGI>
> 100 µM

$$$$
>  <COMPOUND>
N#CC1C(N)=NNC12Nc1ccccc1N2 (centres undefined)

>  <TGI>
> 100 µM

$$$$
>  <COMPOUND>
O=C1C=CC(=O)c2c(O)c(N[C@@H](Cc3ccccc3)C(=O)OCc3ccccc3)c(Cl)c(O)c21

>  <TGI>
> 10 µM

$$$$
>  <COMPOUND>
O=C1C(=O)N(C2CCCCC2)C(=S)N1C1CCCCC1

>  <TGI>
> 100 µM

$$$$
>  <COMPOUND>
O=c1[nH]cnc2c(C3OC(CO)C(O)C3O)scc12 (centres undefined)

>  <TGI>
> 100 µM

$$$$
>  <COMPOUND>
CN(C)C(=O)C1CCC(=C2C(=O)OC(C)(C)OC2=O)N1C (centres undefined)

>  <TGI>
> 100 µM

$$$$
>  <COMPOUND>
Clc1ccc2nc(Oc3ccccc3)cnc2c1

>  <TGI>
> 100 µM

$$$$
>  <COMPOUND>
CSc1c(C(=O)Nc2ccc(Cl)cc2)c(N)[nH]c(=O)c1C#N

>  <TGI>
> 71.4 µM

$$$$
